Measured folding stability dG unfold values are reported for all entries that follow.
assay: folding stability dG unfold (combined trypsin and chymotrypsin); higher = more stable
Give the quantity in kcal/mol, number only.

Example cases with answers are listed next.
[
  {
    "CHAIN": "SAGGSGMSFSITEEVVIPTPGPRTLLLLKTEGDIIIVERDGERLRPVKTVPRKEVPEEPEKLIEELSAGGSA [r2_133_JUSTAS]",
    "folding stability dG unfold (kcal/mol)": -0.434
  },
  {
    "CHAIN": "SMEIDPGPGVIRLRFEAPLVDPEHPRLLTLRLEPVIEVSPDGTLRVREVRLVGFSPDGELLFERPFTLDLSA [r9_383_TrMRF]",
    "folding stability dG unfold (kcal/mol)": 2.16
  },
  {
    "CHAIN": "SAGGKVKALIIPAPDEPGKPVYLKIIHPDGEIVYPLPNDITEEEAKAAAIELGEENGLDLDEIEIAESAGGS [r16_753_TrMRF]",
    "folding stability dG unfold (kcal/mol)": 0.746
  },
  {
    "CHAIN": "SAGGSAGGKTIVIDMSIEEIAKKLGLEIVEVKKNKDGSVTITLKNGKKITIKVKSPEDLLKAIKSAGGSAGG [r6_13_TrROS_Hall]",
    "folding stability dG unfold (kcal/mol)": 2.54
  },
  {
    "CHAIN": "SAGGKLTLEEIKALLKEGKEYSLEELLKKIAELLNLTVELEEEPEKVTVVKVDPETGEIVEEKEIDLSAGGS [r8_105_TrROS_Hall]",
    "folding stability dG unfold (kcal/mol)": 2.28
  },
  {
    "CHAIN": "SAGGSAMKLVLTFPEGLPEIPLEELAKAIEDALPEDFEVKEIKVEPLPDGGLRLTFIVNDEEVEILSAGGSA [r15_451_TrMRF]",
    "folding stability dG unfold (kcal/mol)": 2.54
  },
  {
    "CHAIN": "SAGGSAMYEVTEEKDPNSDYTTVTITFPNGATVTITYNPKTNTITADVDPAVDPEVAAAAAKAVLSSAGGSA [r15_511_JUSTAS]",
    "folding stability dG unfold (kcal/mol)": 2.23
  },
  {
    "CHAIN": "SAGGMTLTVDEIKELLKKGYSLEEIKEALKKAGFEIVEIKKIEKKDGKIYIEIEFKKNKKIIKIEIPSAGGS [r8_179_TrROS_Hall]",
    "folding stability dG unfold (kcal/mol)": 4.2
  }
]

Request: Given the sequence SAGGEVLIDTGPSPEEALYRAYEKGGEVPVIVLEPGSRVLHIFNVRFNPIPKKVEILDEYEIPILPELSAGG [r13_309_TrMRF] , write its reported folding stability dG unfold.
Result: 1.38

Request: Respond only with folding stability dG unfold recorded for SAGGSAGGKLPKNIEKIEFNKKTNIIKVKVKSLEDLKKLAEKLNFEIVSVEEKDGYIYIKIKKKSAGGSAGG [r6_380_TrROS_Hall]
Result: 2.47

Request: Please supply the value of reported folding stability dG unfold for the item SAGGMTLNITVEIPGLGTTITKTFSANPSDYEKIARETEEENPEYKLTSVKVTYSPNSITIDATVELVSAGG [r13_196_JUSTAS]
Result: 2.04

Request: For the sequence SAGGSAGGSAMPVKVKVTVKARFGDKEFELEFEIEVGPGATEEDIKNLVTEKYPGFEEVELESAGGSAGGSA [r18_195_JUSTAS] , report folding stability dG unfold.
Result: 2.16

* * *

assay: folding stability dG unfold (combined trypsin and chymotrypsin); higher = more stable
If the reported folding stability dG unfold equals or exceeds 2 kcal/mol, assign condition met. If not, assign condition not met.

Request: Hi, just wondering whether SAGGGSSSLPAVPVSVETFTFPYKTEEEAKAAAEELAKKLEAEDGKPVKVEVSFDPATGTATVTITVVSAGG [r13_517_JUSTAS] shows folding stability dG unfold of 2 kcal/mol or higher.
Result: condition met

Request: Item SAKIVIIPLGDKAIIIITDENGKTKTIELPGISKIEIKGDHLKIYDPKTGKLIIPPNWKGKDIIIIPGKSAG [r14_83_TrMRF] with folding stability dG unfold of 2 kcal/mol or above?
Result: condition met

Request: Quick check, folding stability dG unfold >= 2 kcal/mol? SAGGKKKKVIIVIEAPPGMSAEEIAAAIAEKLGLPKEEIKVERFKSVEEALAAAEKEGKEVIVIEVDSAGGS [r8_245_TrROS_Hall]
Result: condition met

Request: Could you verify whether the entry SAGGSAGGSAGGMVKKTYEKKKPPGSMEYVTEKEYDPKTNTVKTTTVPVSEYKNIPNKNSAGGSAGGSAGGS [r10_1077_JUSTAS] shows folding stability dG unfold of no less than 2 kcal/mol?
Result: condition not met

Request: Is reported folding stability dG unfold greater than or equal to 2 kcal/mol here: SAGGSAGGMVETKLVESEELPGNRRVLTYRVTEPDSLYRVTVELTLDPSGTVLSSKTTTEPIPLSAGGSAGG [r6_20_JUSTAS]
Result: condition not met

Request: Check if folding stability dG unfold >= 2 kcal/mol (inclusive). Item: SAGGSAGGSLTIPLPDGGTLTVVEEDEEEVLVEERKPNPGGSSPATFTRTIRRPPPVLPPKLVSAGGSAGGS [r12_959_JUSTAS]
Result: condition not met

Request: Decide: is the reported value of folding stability dG unfold for SAGGSAGGIKELLEALGFEVVDVEPTDNKFMIMIRNPEEGRVVVIEIEWDGPPKIEIHPMPPNASAGGSAGG [r6_195_TrROS] equal to or greater than 2 kcal/mol?
Result: condition met

* * *

experiment: folding stability dG unfold from trypsin proteolysis; higher = more stable
The reader will find reported folding stability dG unfold values listed item by item below.
Enter your answer as a number in kcal/mol; do not include the unit.

Would you please look over these solved cases?
[
  {
    "CHAIN": "SAGGSAGGSAGGKKIKIPKKVKVKVVKKKDGKLLVYLEKTGKVIELPVEDLKNITAEDLSAGGSAGGSAGGS [r10_709_TrROS_Hall]",
    "folding stability dG unfold (kcal/mol)": 0.976
  },
  {
    "CHAIN": "SAGGSAGGSAGGAPPPPVKVKVVEIEEEGGERRIRVENEDTGEVVELRVPKGAEVLEELSAGGSAGGSAGGS [r10_1038_TrROS_Hall]",
    "folding stability dG unfold (kcal/mol)": 1.32
  },
  {
    "CHAIN": "SAGGSAGGSAGGSITITWNPESGTVKIKPPNNKKEIEIPAENMTPSQIIDQAKDNGVEVSAGGSAGGSAGGS [r4_49_TrROS]",
    "folding stability dG unfold (kcal/mol)": -0.0527
  },
  {
    "CHAIN": "SAGGVEEIVEKLPEEAEEVEITSEPHPLPGSTLTKYTIKAKNSATGKTKTYEVTVLYDPEGNVLEVLLSAGG [r13_358_JUSTAS]",
    "folding stability dG unfold (kcal/mol)": 1.7
  },
  {
    "CHAIN": "SAGGSAGGSAGGSGSKEPKYYYRVVVEDDGNPVVRTYAPDEPLPAPANLKVFPFLADEESAGGSAGGSAGGS [r4_107_TrMRF]",
    "folding stability dG unfold (kcal/mol)": -0.421
  },
  {
    "CHAIN": "SAGSMKIKIKAKVPPGPYRIRIMWQYPGGDFKPVEEETVDPGQEVKIPIEFPDGKPFDPDNIRVMIEPPSAG [r5_287_TrROS]",
    "folding stability dG unfold (kcal/mol)": 1.44
  }
]

Request: Look up and state reported folding stability dG unfold for SMEISFTDPAEAEALLAEVKAKLKAELPPNTVVPITVRDAAGNPTTHPITITPEPPEVVYFTETGGTVLLSA [r9_596_JUSTAS]
Result: 1.94

Request: Return folding stability dG unfold for the following sequence: SAGGSAGGSAGGKIKPGQTVIFIELKITKQRDGPDGKRYMEFEIERIDIFRIPPGDNILSAGGSAGGSAGGS [r10_826_TrROS]
Result: 2.55

Request: Using known records, supply folding stability dG unfold for SAGAHTVSVHYVEPGSKKLSSVETSEITLEPGEELPLDEVAARFPSENYEVTAQEEPDAITITIYVYRGSAG [r5_269_JUSTAS]
Result: 0.303

Request: Quick one: give measured folding stability dG unfold for SAGGSAGGSASIELPPDATVTLTTLDPATGTVTTTTVKVDSTGTTTLATTTTTVDPASAAAASAGGSAGGSA [r18_248_JUSTAS]
Result: 1.27

Request: Indicate the recorded folding stability dG unfold value for this sequence: SAGGSAGGSGVEITLPNKDELIEYLKKKFAEKGGKIKKIKIEPIGPNMYKALIETDPNDPYFKSAGGSAGGS [r12_647_TrMRF]
Result: 0.759

* * *

Property: folding stability dG unfold; scope: individual sequences
experiment: folding stability dG unfold from trypsin proteolysis; higher = more stable
Answer with the value and then the unit.

[
  {
    "CHAIN": "SPLKEGDTLTFTLPVPDLPNVRIEIDLHFYKDPNTDRYRVLANITVYYGDKPVTFSIEMPVDTFLDLLKSSA [r9_71_TrMRF]",
    "folding stability dG unfold": "2.99 kcal/mol"
  }
]

Request: Input SAGGDSVYIPGSISEAIDALRENPNKTVHIMSPDGYYIKITVKWDGDGDYKIDIKWQPPPPPPDPEDKSAGG [r13_56_TrROS] , output reported folding stability dG unfold.
Result: 2.23 kcal/mol

Request: Find the measured folding stability dG unfold of SAGGSAGGSAPWLTIIFRMDTPEMAKEIANWLREDGLDIEVETEPDPNDGRFWVMITIQLPNSAGGSAGGSA [r18_455_TrROS] and report it.
Result: 3.57 kcal/mol

Request: Let me know recorded folding stability dG unfold for SAGGSAGGSALDSLVPDIDLRVRVEPVPDDPSILRADVELSDGLVLEVEFLPSGVARVSLSGKGSAGGSAGG [r6_122_TrMRF] , thanks.
Result: -0.0307 kcal/mol

Request: Quote folding stability dG unfold reported for SAGGSAGGSSMPPGWSVTSETVVESIIETPNGPIIKVTTSKTTVTPPNGPPSTYTTTSEDPLGSAGGSAGGS [r12_544_JUSTAS] please.
Result: -0.314 kcal/mol

Request: Provide one value: measured folding stability dG unfold of SMRKVKRKVTLEITIKVPESVLKPIPDADYYTYPFDDKLVKPDAVIPRTVTITGPYTEEEVEKLVKEILSSA [r9_165_JUSTAS]
Result: 0.749 kcal/mol

Request: For the sequence SAGGSAGGGSFTLTEEPGGVLTITTPDKTLTVNLEGVTPDPNSDTTFSFTLSLDPDDSASVTSSSAGGSAGG [r6_202_JUSTAS] , give its reported folding stability dG unfold.
Result: 1.44 kcal/mol

Request: Complete the entry with folding stability dG unfold for SAGPWIMIPLPPELREIAKKAGMSPDDVETVEIPLKFGDREVKIEVEVMPDDGWIMVRFKSNGKEFMIPSAG [r5_545_TrROS]
Result: 1.55 kcal/mol

Request: Give the reported folding stability dG unfold for this sequence. ADFRVTEESPEGVVTQTTTVALPDGTSRTLTYSYSKDASLTSVTVSYTPDSVTTTTTPVTPVPPGSPELAGS [r1_53_JUSTAS]
Result: -0.411 kcal/mol

Request: Item SAGMTIKIKNKKTNKVITIERRPDGTTVKVKVYDKNGKLVKTYPEGMTLEELLKKFPNAKVEVVEVEKPSAG [r5_314_TrROS_Hall] : provide folding stability dG unfold
Result: 1.47 kcal/mol

Request: Specify measured folding stability dG unfold for SAGGSAGGSAGGMKVSVSLDILETEVSPDGTVTATYKDESGEIRTITKYVEVKLKPGLASAGGSAGGSAGGS [r10_281_JUSTAS] .
Result: -0.148 kcal/mol

Request: Give reported folding stability dG unfold value for SAGGSAGMIEVEIRPTPEGGYEVLVKFYGPGGVEVEEKKYRFGSEEEAKKFLEELAKKNGYSVKIRSAGGSA [r15_242_JUSTAS]
Result: 2.11 kcal/mol

Request: Tell us which folding stability dG unfold value is on record for SAGGYVTSPMSPEIEAKAKEAGKTIDEAKELVIPVNDGGKFRTVKVTFYPETGTVAFYYEDTGEWSNLLSAG [r5_545_JUSTAS]
Result: 0.499 kcal/mol

Request: Retrieve folding stability dG unfold measured for SAGGKPDIKDIEIDDVEYDPNEGYFRYEVEIKWPGGKERPIEVPMKYEDGRMTPEDIRKMAKKLIKNSAGGS [r16_221_TrROS] and print it.
Result: 0.423 kcal/mol
